Source of measurements: the supplement of paper PMC10307832

Recorded relative viability values for a group of compounds are listed next.
Tested on: BEN
method: relative viability (nuclei count vs DMSO), 5 days (fraction); higher = more cells survive
measurement.parameters: first compound 0.5 µM

compound	relative viability
Nc1ccn([C@@H]2O[C@H](CO)[C@@H](O)[C@@H]2O)c(=O)n1 [Cytarabine] + CS(=O)(=O)N1CCN(Cc2cc3nc(-c4cccc5[nH]ncc45)nc(N4CCOCC4)c3s2)CC1 [Pictilisib] (partner 1 µM)	0.195
Nc1ccn([C@@H]2O[C@H](CO)[C@@H](O)[C@@H]2O)c(=O)n1 [Cytarabine] + Nc1ncn([C@H]2C[C@H](O)[C@@H](CO)O2)c(=O)n1 [Decitabine] (partner 2 µM)	0.31
Nc1ccn([C@@H]2O[C@H](CO)[C@@H](O)[C@@H]2O)c(=O)n1 [Cytarabine] + C[C@]1(O)C[C@@H](c2nc(-c3ccc4ccc(-c5ccccc5)nc4c3)c3c(N)nccn32)C1 [Linsitinib] (partner 1 µM)	0.307

---

Tested on: NCI-H1650
method: relative viability (nuclei count vs DMSO), 5 days (fraction); higher = more cells survive
measurement.parameters: first compound 0.04 µM
Recorded relative viability values for a group of compounds are listed next.

compound	target.under.test	relative viability
Cc1sc2c(c1C)C(c1ccc(Cl)cc1)=N[C@@H](CC(=O)OC(C)(C)C)c1nnc(C)n1-2 [JQ1] + COc1cccc2cc(-c3nc([C@H]4CC[C@H](C(=O)O)CC4)n4ncnc(N)c34)[nH]c12 [OSI-027] (partner 0.5 µM)	NCI-H1650	0.51
Cc1sc2c(c1C)C(c1ccc(Cl)cc1)=N[C@@H](CC(=O)OC(C)(C)C)c1nnc(C)n1-2 [JQ1] + CS(=O)(=O)N1CCN(Cc2cc3nc(-c4cccc5[nH]ncc45)nc(N4CCOCC4)c3s2)CC1 [Pictilisib] (partner 1 µM)	NCI-H1650	0.625
Cc1sc2c(c1C)C(c1ccc(Cl)cc1)=N[C@@H](CC(=O)OC(C)(C)C)c1nnc(C)n1-2 [JQ1] + O=C(CCCCCCC(=O)Nc1ccccc1)NO [Vorinostat] (partner 1 µM)	NCI-H1650	0.6
Cc1sc2c(c1C)C(c1ccc(Cl)cc1)=N[C@@H](CC(=O)OC(C)(C)C)c1nnc(C)n1-2 [JQ1] + C[C@@H](Oc1cc(-c2cnn(C3CCNCC3)c2)cnc1N)c1c(Cl)ccc(F)c1Cl [Crizotinib] (partner 1 µM)	NCI-H1650	0.948
Cc1sc2c(c1C)C(c1ccc(Cl)cc1)=N[C@@H](CC(=O)OC(C)(C)C)c1nnc(C)n1-2 [JQ1] + Cc1cc(Nc2cc(N3CCN(C)CC3)nc(Sc3ccc(NC(=O)C4CC4)cc3)n2)n[nH]1 [Tozasertib] (partner 0.1 µM)	NCI-H1650	0.355
Cc1sc2c(c1C)C(c1ccc(Cl)cc1)=N[C@@H](CC(=O)OC(C)(C)C)c1nnc(C)n1-2 [JQ1] + CCNC(=O)c1noc(-c2cc(C(C)C)c(O)cc2O)c1-c1ccc(CN2CCOCC2)cc1 [Luminespib] (partner 0.01 µM)	NCI-H1650	0.21
Cc1sc2c(c1C)C(c1ccc(Cl)cc1)=N[C@@H](CC(=O)OC(C)(C)C)c1nnc(C)n1-2 [JQ1] + CC(=O)c1c(C)c2cnc(Nc3ccc(N4CCNCC4)cn3)nc2n(C2CCCC2)c1=O [Palbociclib] (partner 0.5 µM)	NCI-H1650	0.322
Cc1sc2c(c1C)C(c1ccc(Cl)cc1)=N[C@@H](CC(=O)OC(C)(C)C)c1nnc(C)n1-2 [JQ1] + Nc1nc2[nH]cc(CCc3ccc(C(=O)N[C@@H](CCC(=O)O)C(=O)O)cc3)c2c(=O)[nH]1 [Pemetrexed] (partner 0.2 µM)	NCI-H1650	0.365
Cc1sc2c(c1C)C(c1ccc(Cl)cc1)=N[C@@H](CC(=O)OC(C)(C)C)c1nnc(C)n1-2 [JQ1] + COc1cc2c(Oc3ccc(NC(=O)C4(C(=O)Nc5ccc(F)cc5)CC4)cc3F)ccnc2cc1OCCCN1CCOCC1 [Foretinib] (partner 0.25 µM)	NCI-H1650	0.894
